System: SNB-19
Test: NCI tumour cell line growth inhibition, 48 h
The source made the active and inactive calls. Rule as the data show it: active = GI50 up to about 1.1 µM and inactive = higher.
endpoint name: GI50

Some compounds with known GI50 results, for comparison:
{"compound": "COC(=O)CN1Cc2cc(C)cc(c2O)CN(CC(=O)OC)Cc2cc(C)cc(c2O)CN(CC(=O)OC)Cc2cc(C)cc(c2O)CN(CC(=O)OC)Cc2cc(C)cc(c2O)C1", "GI50": "16 µM (inactive)"}
{"compound": "CC(C)(C)C1CCC2c3c([nH]c4ccccc34)C3C(=O)N(c4ccc([N+](=O)[O-])cc4)C(=O)C3C2C1 (stereo not drawn)", "GI50": "22 µM (inactive)"}

Query string: Return reported GI50; argument: O=C1CSC(C(/N=N/c2ccc(Cl)cc2)c2nc3ccccc3[nH]2)=N1 (stereo not drawn)
Result string: 50.6 µM (inactive)

* * *

System: SR
Assay: NCI tumour cell line growth inhibition, 48 h
Activity calls are given as the source filed them. Rule as the data show it: active = GI50 up to about 1.1 µM and inactive = higher.
Result category, one only: active, inactive

{"compound": "[O-][S+]1c2ccccc2SCSc2ccccc21", "tested on": "SR", "label value": "inactive"}
{"compound": "C/C(=N\\NC(=S)NC(CCC(=O)O)C(=O)O)c1ccccn1 (stereo not given)", "tested on": "SR", "label value": "inactive"}
{"compound": "Cc1nc(O)c2c3c(sc2n1)CCCC3", "tested on": "SR", "label value": "inactive"}
{"compound": "OC(CC(CC(O)(C(F)(F)Cl)C(F)(F)Cl)=NNc1ccccc1)(C(F)(F)Cl)C(F)(F)Cl", "tested on": "SR", "label value": "inactive"}
{"compound": "CCN(CC)CCSc1c2ccccc2nc2c(OC)ccc(OC)c12", "tested on": "SR", "label value": "active"}

Query string: Recorded test outcome, item `COC(=O)C1=CNC(C(=O)OC)=NN1`
Result string: inactive

Query string: Hey, what did the test say about NC12CCC(CC1=O)C2 (stereo not given) ?
Result string: inactive

Query string: Per the records of this test, what outcome belongs to O=C(O)CC1C(=O)OC2C3COC(=O)c4cc(O)c(O)c(O)c4-c4c(cc(O)c(O)c4O)C(=O)OC2C(OC(=O)c2cc(O)c(O)c4c2C1C(O)C(=O)O4)C(OC(=O)c1cc(O)c(O)c(O)c1)O3 (stereo not given) ?
Result string: inactive

Query string: Identify the outcome logged in this assay for the compound shown: CC(C)(Br)C(Br)CCC1(C(Br)CBr)CO1 (stereo not given)
Result string: inactive

Query string: Which result was noted for this compound in the test: `Cc1cc2nc(N3C(=O)/C(=C/c4cccc([N+](=O)[O-])c4)N=C3c3ccccc3)sc2cc1C`
Result string: inactive

* * *

Entries and their measured GI50 follow.
Test system: KM12
Assay: NCI tumour cell line growth inhibition, 48 h
Active and inactive are the calls of the source. Cut-off read from the data, not from the text of the source: active = GI50 up to about 1.1 µM and inactive = higher.

{"compound": "C=C(c1ccccc1)C1ON(C)CCc2cc(OC)c(OC)cc21 (stereo unspecified)", "reported value": "> 100 µM (inactive)"}
{"compound": "CC1(Cc2ccccc2)NC(=S)NC1=O (stereo unspecified)", "reported value": "> 100 µM (inactive)"}
{"compound": "O=c1/c(=C/c2ccc([N+](=O)[O-])o2)sc2n1[C@@H](c1ccc(Cl)cc1)C=C(c1cc(F)c(Cl)cc1Cl)N=2", "reported value": "24.5 µM (inactive)"}
{"compound": "N=C(N)SCCc1ccccn1", "reported value": "> 100 µM (inactive)"}
{"compound": "O=C(OCc1ccccc1)n1cccc1", "reported value": "> 100 µM (inactive)"}

Now take the following compound into account.
Query string: Can you share its GI50? I mean this compound: `N#C/C(C(=O)Nc1ccc(Cl)cc1)=C(/N)N1CCCCC1`
Result string: > 100 µM (inactive)

* * *

Tested on: Hs-578T
Test: NCI tumour cell line growth inhibition, 48 h
Active and inactive are the calls of the source. Cut-off read from the data, not from the text of the source: active = GI50 up to about 1.1 µM and inactive = higher.
endpoint name: GI50

These recorded examples may help you get a feel for the data.
{"compound": "c1cncc(C2(c3cc4ccccc4[nH]3)COCO2)c1 (configuration not stated)", "GI50": "> 100 µM (inactive)"}
{"compound": "CN(C)c1ccc(C(C#N)N2CCCN(C(C#N)c3ccc(N(C)C)cc3)C2c2ccc(N(C)C)cc2)cc1 (configuration not stated)", "GI50": "> 100 µM (inactive)"}
{"compound": "O=c1/c(=C/c2ccc([N+](=O)[O-])o2)sc2n1[C@@H](c1ccc(Cl)cc1)C=C(c1cc(F)c(Cl)cc1Cl)N=2", "GI50": "56.5 µM (inactive)"}
{"compound": "CC(=O)O[C@H]1CC[C@]2(C=O)[C@H]3CC[C@]4(C)[C@@H](C5=CC(=O)OC5)CC[C@]4(O)[C@@H]3CC[C@]2(O)C1 [STROPHANTHIDIN ACETATE]", "GI50": "0.45 µM (active)"}
{"compound": "NC(=O)/C=c1/c2ccccc2n2nc3ccccc3c12", "GI50": "31.2 µM (inactive)"}

Query string: Request - read-out GI50 | tested on Hs-578T | compound `O=C1C=CC(=O)C1(Br)Br`
Result string: 17.9 µM (inactive)

Query string: Find the measured GI50: item CSc1nc(NC2OCC(OC(C)=O)C(OC(C)=O)C2OC(C)=O)c(/N=C\C=N\c2c(NC3OCC(OC(C)=O)C(OC(C)=O)C3OC(C)=O)nc(SC)[nH]c2=O)c(=O)[nH]1 (configuration not stated) , target or system Hs-578T.
Result string: 42 µM (inactive)

Query string: // map `Cc1cc(O)c2c(=O)c3ccccc3[nH]c2c1` to recorded GI50 (system: Hs-578T)
Result string: 45.3 µM (inactive)

Query string: Hs-578T / GI50 / `COc1ccc(-c2c3c(nc4nc(SC)nc(SC)c24)CCCC3)cc1OC` : value?
Result string: 19.1 µM (inactive)

Query string: Hello, I am looking for reported GI50 with Hs-578T for `Cc1c(CNc2ccc(Cl)c(Cl)c2Cl)cnc2nc(N)nc(N)c12` . Could you help?
Result string: 17.8 µM (inactive)

Query string: Record lookup: for Hs-578T, what GI50 belongs to `CC(C)(C)OC(=O)N1[C@@H]2Cc3ccc(N)cc3[C@@]1(C)c1ccccc12` ?
Result string: 36.6 µM (inactive)

Query string: Entry COc1ccc(/N=N/c2c(C)c(C#N)c(=S)n(C3OC(CO)C(O)C(O)C3O)c2-c2ccccc2)cc1 (configuration not stated) , system Hs-578T: what GI50 was measured?
Result string: 21.5 µM (inactive)

* * *

Tested on: IGROV-1
Assay: NCI tumour cell line growth inhibition, 48 h
Calls of active or inactive are those of the source. Cut-off read from the data, not from the text of the source: active = GI50 up to about 1.1 µM and inactive = higher.
Please reply with one of these outcomes: True (active), False (inactive)

Sample answers from the record:
{"compound": "COC1CN(C)/C(=N\\c2cccc3ccccc23)S1 (centres undefined)", "label value": "False"}
{"compound": "O=c1/c(=C/c2ccc([N+](=O)[O-])o2)sc2n1[C@@H](c1ccc(Cl)cc1)C=C(c1cc(F)c(Cl)cc1Cl)N=2", "label value": "False"}
{"compound": "CCCCCCCCCCCCCCCC1(OC)C[N+](C)(C)CCO1 (centres undefined)", "label value": "False"}
{"compound": "Cn1c(=O)c2c(n(C)c1=O)n1c(=O)c3ccccc3nc1n2C", "label value": "False"}
{"compound": "COc1ccc2nc(NC(=O)/C(C#N)=C/c3ccccc3)sc2c1", "label value": "False"}

Query string: Which outcome was entered for the compound `O=c1cc(-c2ccccc2)[nH]c2ccc(N3CCCCC3)cc12` in this test?
Result string: True

Query string: Which result was noted for this compound in the test: `O=C(O)C1(C(=O)O)CC1`
Result string: False

Query string: Please share the test call associated with O=C(O)CC1C(=O)OC2C3COC(=O)c4cc(O)c(O)c(O)c4-c4c(cc(O)c(O)c4O)C(=O)OC2C(OC(=O)c2cc(O)c(O)c4c2C1C(O)C(=O)O4)C(OC(=O)c1cc(O)c(O)c(O)c1)O3 (centres undefined) .
Result string: False

Query string: GET /call?item= `COc1ccc(/C=C(\C(=O)OCC(C)C)c2ccc(OC)c(OC)c2)cc1OC` returns the recorded outcome of this test.
Result string: False

Query string: Hey, what did the test say about Cc1ccc(S(=O)(=O)OC2CN3CCC2CC3)cc1 (centres undefined) ?
Result string: False

Query string: Any idea what this test logged for CC1CCC2(O)C3(C)CC4(O)OC2(C1O)C1(O)C3(O)C(OC(=O)c2ccc[nH]2)C(O)(C(C)C)C41C (centres undefined) ?
Result string: False

Query string: What call does the record list for `COc1cccc(NC(=O)C(C#N)=C(SC)SC)c1` ?
Result string: False

Query string: Hi, sorry to bother you, what did the test record for C=C(C)[C@@H]1CC[C@]2(COC(C)=O)CC[C@]3(C)[C@H](CC[C@@H]4[C@@]5(C)CC[C@H](OC(C)=O)C(C)(C)[C@@H]5CC[C@]43C)[C@@H]12 [BETULIN DIACETATE] ?
Result string: False

Query string: What outcome does the record of this test show for `O=C(Cc1ccccc1)NN1C(=O)/C(=C\c2cccc(O)c2)S/C1=N\c1ccccc1` ?
Result string: False

Query string: Record lookup: outcome of this test for `CC(C)c1ccc(NC(=S)NC(=O)c2ccccc2)cc1` ?
Result string: False

Query string: Check the results log: what was the call for `O=C1Cc2c(-c3ccccc3)cc(-c3ccccc3)nc2-c2ccccc2N1` ?
Result string: False

These measurements were taken from ChEMBL document CHEMBL1201862.
